FYI, the data here is from paper PMC9650428.

target: SotB (Escherichia coli); construct: The full-length sotB and lapC genes from the E. coli MG1655 genome were subcloned into the cloning vector pET28a; 8xHis (C); made in house; host or cells: E. coli C43(DE3); assay: SPR affinity assay, wild-type SotB; format: binding
recorded_metric: pKd
# pKd: negative log10 of molar concentration; output just the value

Challenge: What does the record list as pKd for `O=C(CO)[C@@H](O)[C@H](O)[C@H](O)CO` ?
Response given: 2.18

====

molecular target: SotB W119A (Escherichia coli, UniProt P31122, W119A); construct: The full-length sotB and lapC genes from the E. coli MG1655 genome were subcloned into the cloning vector pET28a; 8xHis (C); assay: SPR affinity assay, SotB variant W119A; settings: read-out: KD, binding affinity with W119A
recorded_metric: Kd (mM)
Lab book: enter the figure in mM, no units written.

OC1OC[C@H](O)[C@H](O)[C@H]1O (mixture of isomers)    4.9

Moving on to the next molecule.
Challenge: I am curious: what Kd value has been reported for CC(C)S[C@@H]1O[C@H](CO)[C@H](O)[C@H](O)[C@H]1O [IPTG, isopropyl-β-D-1-thiogalactopyranoside] ?
Response given: 6.7

====

pKd overview
Target: SotB N343A (Escherichia coli, UniProt P31122, N343A)
Construct: The full-length sotB and lapC genes from the E. coli MG1655 genome were subcloned into the cloning vector pET28a; 8xHis (C)
Sequence (P31122 1-396 N343A): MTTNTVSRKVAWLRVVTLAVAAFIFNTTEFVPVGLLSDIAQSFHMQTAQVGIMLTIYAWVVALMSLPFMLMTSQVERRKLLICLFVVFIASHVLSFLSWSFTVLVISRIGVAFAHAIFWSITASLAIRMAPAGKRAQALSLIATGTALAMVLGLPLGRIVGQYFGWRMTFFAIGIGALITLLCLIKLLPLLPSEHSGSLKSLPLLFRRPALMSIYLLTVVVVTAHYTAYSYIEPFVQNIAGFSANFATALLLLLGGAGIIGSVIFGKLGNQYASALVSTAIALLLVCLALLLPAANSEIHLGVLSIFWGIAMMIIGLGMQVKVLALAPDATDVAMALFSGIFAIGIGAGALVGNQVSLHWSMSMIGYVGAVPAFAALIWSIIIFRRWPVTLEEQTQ
Test: SPR affinity assay, SotB variant N343A
Details: SotB variant N343A, read-out: KD, binding affinity with N343A
Please treat pKd as minus the base-10 logarithm of the molar concentration.

Challenge: Request - read-out pKd | tested on SotB N343A (Escherichia coli, UniProt P31122, N343A) | molecule CC(C)S[C@@H]1O[C@H](CO)[C@H](O)[C@H](O)[C@H]1O [IPTG, isopropyl-β-D-1-thiogalactopyranoside]
Response given: 1.82

Challenge: What pKd appears in the records for this molecule with SotB N343A (Escherichia coli, UniProt P31122, N343A)? OC1OC[C@H](O)[C@H](O)[C@H]1O (mixture of isomers)
Response given: 1.84

====

molecular target: SotB (Escherichia coli, UniProt P31122); construct: The full-length sotB and lapC genes from the E. coli MG1655 genome were subcloned into the cloning vector pET28a; 8xHis (C); made in house; host or cells: E. coli C43(DE3); experiment: SPR affinity assay, wild-type SotB; type: binding; conditions: SPR, wild-type SotB immobilised, one-to-one model; read-out: KD (equilibrium dissociation constant), binding affinity with SotB
recorded_metric: Kd
Remember to put the unit after the number in your answer.

CC(C)S[C@@H]1O[C@H](CO)[C@H](O)[C@H](O)[C@H]1O [IPTG, isopropyl-β-D-1-thiogalactopyranoside]    10.2 mM
O=C[C@H](O)[C@@H](O)[C@H](O)CO    0.47 mM
OC[C@H]1OC(O)[C@H](O)[C@@H](O)[C@@H]1O (some centres unmarked)    2.6 mM
OC1OC[C@H](O)[C@H](O)[C@H]1O (mixture of isomers)    4.1 mM

Now for a further compound.
Challenge: For SotB (Escherichia coli, UniProt P31122), provide Kd of OC[C@H]1OC(O)[C@@H](O)[C@@H](O)[C@@H]1O (some centres unmarked) please.
Response given: 3.1 mM

====

target: SotB H115A (Escherichia coli, UniProt P31122, H115A); construct: The full-length sotB and lapC genes from the E. coli MG1655 genome were subcloned into the cloning vector pET28a; 8xHis (C); made in house; host or cells: E. coli C43(DE3); assay: SPR affinity assay, SotB variant H115A; format: binding; details: SotB variant H115A, read-out: KD, binding affinity with H115A
pKd values, listed per item
pKd field: float, defined as -log10 of concentration (mol/L).

CC(C)S[C@@H]1O[C@H](CO)[C@H](O)[C@H](O)[C@H]1O [IPTG, isopropyl-β-D-1-thiogalactopyranoside]    1.86

Note: attention shifts to another entry.
Challenge: I'd like to know its pKd. The molecule in question is OC1OC[C@H](O)[C@H](O)[C@H]1O (mixture of isomers) [L-arabinose]
Response given: 1.88

====

Target: SotB S339A (Escherichia coli, UniProt P31122, S339A)
Construct: The full-length sotB and lapC genes from the E. coli MG1655 genome were subcloned into the cloning vector pET28a; 8xHis (C)
Sequence (P31122 1-396 S339A): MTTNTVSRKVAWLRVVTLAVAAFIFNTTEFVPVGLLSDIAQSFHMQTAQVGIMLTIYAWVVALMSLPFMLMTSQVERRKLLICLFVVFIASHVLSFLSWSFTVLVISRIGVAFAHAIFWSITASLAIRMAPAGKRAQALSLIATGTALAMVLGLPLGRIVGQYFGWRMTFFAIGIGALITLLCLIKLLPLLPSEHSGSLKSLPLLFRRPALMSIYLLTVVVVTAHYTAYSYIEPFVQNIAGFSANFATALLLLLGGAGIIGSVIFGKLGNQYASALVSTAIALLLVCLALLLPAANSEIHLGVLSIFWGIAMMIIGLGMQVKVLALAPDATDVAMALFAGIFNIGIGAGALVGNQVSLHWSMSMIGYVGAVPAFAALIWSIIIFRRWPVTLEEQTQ
Test: SPR affinity assay, SotB variant S339A
Conditions: read-out: KD, binding affinity with S339A
Description: The instrument used in surface plasmon resonance (SPR) affinity assays was OpenSPR (Nicoya, Canada) and the chip used was COOH sensor chip (Nicoya, Canada). SotB and its variants were as ligands. IPTG, L-arabinose, D-xylose, D-glucose, D-fructose, and D-mannose were as small molecules. […]
In this section, each of the molecules is paired with its reported Kd.
Report as a plain number; the unit mM is understood.

OC1OC[C@H](O)[C@H](O)[C@H]1O (mixture of isomers)    3.5

Consider the additional molecule presented here.
Challenge: # lookup: Kd of CC(C)S[C@@H]1O[C@H](CO)[C@H](O)[C@H](O)[C@H]1O [IPTG, isopropyl-β-D-1-thiogalactopyranoside]
Response given: 7.6
